B1: Pistol ribozyme (parent)
chain: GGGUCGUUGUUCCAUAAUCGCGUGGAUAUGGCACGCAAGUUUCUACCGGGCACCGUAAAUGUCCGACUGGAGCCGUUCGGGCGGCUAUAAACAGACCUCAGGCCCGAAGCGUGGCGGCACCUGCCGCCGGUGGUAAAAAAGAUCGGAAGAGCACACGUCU

Variants of: B1
protocol: aptazyme ON/OFF ratio, guanine; higher = stronger switching; co-transcriptional cleavage with and without guanine
metricName: aptazyme ON/OFF ratio
Could you keep your reply to the number by itself?

| variantSpec | endpointResult |
| --- | --- |
| U8A U10C U11G C12U C13A | 1.26 |
| U7C G9C U10C C12A C13U | 1.04 |
| U7C U8A G9U U10C U11A C12G C13A | 1.1 |
| U7A U8G U10C C13U | 1.4 |
| U8A G9A U10C U11G C13A | 1.16 |
| U7A U8G G9A U10A U11G C12A C13U | 1.4 |
| U7C U8A G9U C12G C13A | 1.21 |
| U7A G9U U10A U11G C12U C13A | 1.16 |
| U8C G9C U11C C12U | 1.08 |
| U8A G9A U10A U11A C12U C13G | 1.1 |

Qu. Dear colleague, I am looking for the recorded aptazyme ON/OFF ratio of the following variant: G9A U10A C12U C13U
Ans. 1.4

Qu. Tell me the measured aptazyme ON/OFF ratio of U10A U11A C12U C13G , please.
Ans. 1.35

Qu. Find the recorded aptazyme ON/OFF ratio belonging to U7A U8A U10G U11C C12U and report it.
Ans. 1.1

Qu. Dear colleague, I am looking for the recorded aptazyme ON/OFF ratio of the following variant: U7G G9A U10A C13A
Ans. 1.07

Qu. For the variant shown here, U7G U8C U10G U11C , give the reported aptazyme ON/OFF ratio.
Ans. 2.14

Cited source for all entries: the RNAGym collection of RNA variant scans (doi:10.1021/acssynbio.7b00057)
